This section presents molecules with their documented pIC50 values.
test system: HepG2; test: Cytotoxicity against human HepG2 cells after 72 hrs by MTT assay; type: functional, cell-based; details: HepG2, 72 h
Interpret pIC50 as the negative base-10 log of the concentration measured in mol/L.

Examples with their reported pIC50 follow.
{"molecule": "Cc1cc(Cl)cc2c(=O)oc(C3CC(c4ccc(Cl)cc4)=NO3)nc12 (configuration not stated)", "tested.system": "HepG2", "value.kind": "pIC50", "assay.value": 4.36}
{"molecule": "O=c1[nH]cc(F)c(=O)[nH]1", "tested.system": "HepG2", "value.kind": "pIC50", "assay.value": 5.32}
{"molecule": "Cc1cc(Cl)cc2c(=O)oc(C3CC(c4ccc(F)cc4)=NO3)nc12 (configuration not stated)", "tested.system": "HepG2", "value.kind": "pIC50", "assay.value": 4.27}
{"molecule": "COc1cc(C2=NOC(C(=O)Nc3c(C)cc(Cl)cc3C(=O)NC3CCCCC3)C2)cc(OC)c1OC (configuration not stated)", "tested.system": "HepG2", "value.kind": "pIC50", "assay.value": 4.46}

Field request: pIC50 | item: CNC(=O)c1cc(Cl)cc(C)c1NC(=O)C1CC(c2cc(OC)c(OC)c(OC)c2)=NO1 (configuration not stated) 4.17

Field request: pIC50 | item: CCN(CC)C(=O)c1cc(Cl)cc(C)c1NC(=O)C1CC(c2ccc(Cl)cc2)=NO1 (configuration not stated) 4.42

---

This section presents compounds with their documented inhibition of growth at 40 µg/mL values.
system: SGC-7901; test: Growth inhibition of human SGC7901 cells at 40 ug/ml after 72 hrs by MTT assay; format: functional; details: SGC-7901, 72 h, read-out: GI
The reply should contain only the number, in %.

Examples with their reported inhibition of growth at 40 µg/mL follow.
{"compound": "CNC(=O)c1cc(Cl)cc(C)c1NC(=O)C1CC(c2ccc(F)cc2)=NO1 (configuration not stated)", "value.kind": "inhibition of growth at 40 µg/mL", "assay.value": 12.8}
{"compound": "CCCNC(=O)c1cc(Cl)cc(C)c1NC(=O)C1CC(c2cc(OC)c(OC)c(OC)c2)=NO1 (configuration not stated)", "value.kind": "inhibition of growth at 40 µg/mL", "assay.value": 15.4}
{"compound": "Cc1cc(Cl)cc(C(=O)NC(C)C)c1NC(=O)C1CC(c2ccc(F)cc2)=NO1 (configuration not stated)", "value.kind": "inhibition of growth at 40 µg/mL", "assay.value": 17.2}

Field request: inhibition of growth at 40 µg/mL | item: Cc1cc(Cl)cc2c(=O)oc(C3CC(c4ccc(Cl)cc4)=NO3)nc12 (configuration not stated) 35.6

Field request: inhibition of growth at 40 µg/mL | item: Cc1cc(Cl)cc(C(=O)NC2CCCCC2)c1NC(=O)C1CC(c2ccc(F)cc2)=NO1 (configuration not stated) 15.6

Field request: inhibition of growth at 40 µg/mL | item: Cc1cc(Cl)cc(C(=O)NC2CCCCC2)c1NC(=O)C1CC(c2ccc(Cl)cc2)=NO1 (configuration not stated) 3.1

Field request: inhibition of growth at 40 µg/mL | item: CC(C)NC(=O)c1ccccc1NC(=O)C1CC(c2ccc(F)cc2)=NO1 (configuration not stated) 10.3

---

test system: NCI-H460; assay: Growth inhibition of human NCI-H460 cells at 40 ug/ml after 72 hrs by MTT assay; format: functional; settings: NCI-H460, 72 h, read-out: GI
Returns one of yes (1) or no (0); yes (1) when inhibition of growth at 40 µg/mL is >= 40%.

A selection of reference data follows.
{"compound": "Cc1cc(Cl)cc2c(=O)oc(C3CC(c4ccc(Cl)cc4)=NO3)nc12 (stereo not given)", "class.name": "yes (1)"}
{"compound": "CNC(=O)c1cc(Cl)cc(C)c1NC(=O)C1CC(c2ccc(F)cc2)=NO1 (stereo not given)", "class.name": "yes (1)"}
{"compound": "CNC(=O)c1ccccc1NC(=O)C1CC(c2ccc(F)cc2)=NO1 (stereo not given)", "class.name": "no (0)"}

# check: inhibition of growth at 40 µg/mL of COc1cc(C2=NOC(C(=O)Nc3c(C)cc(Cl)cc3C(=O)NC(C)C)C2)cc(OC)c1OC (stereo not given) is greater than or equal to 40% no (0)

# check: inhibition of growth at 40 µg/mL of COc1cc(C2=NOC(C(=O)Nc3ccccc3C(=O)NC(C)C)C2)cc(OC)c1OC (stereo not given) is greater than or equal to 40% no (0)

# check: inhibition of growth at 40 µg/mL of O=c1[nH]cc(F)c(=O)[nH]1 [FLUOROURACIL] is greater than or equal to 40% yes (1)

# check: inhibition of growth at 40 µg/mL of CCCNC(=O)c1cc(Cl)cc(C)c1NC(=O)C1CC(c2cc(OC)c(OC)c(OC)c2)=NO1 (stereo not given) is greater than or equal to 40% no (0)

---

tested on: NCI-H460; test: Growth inhibition of human NCI-H460 cells at 40 ug/ml after 72 hrs by MTT assay; format: functional; conditions: NCI-H460, 72 h, read-out: GI
Returns one of Yes or No; Yes when inhibition of growth at 40 µg/mL is >= 10%.

A selection of reference data follows.
{"molecule": "Cc1cc(Cl)cc(C(=O)NC(C)C)c1NC(=O)C1CC(c2ccc(F)cc2)=NO1 (stereo unspecified)", "class.name": "No"}
{"molecule": "COc1cc(C2=NOC(C(=O)Nc3c(C)cc(Cl)cc3C(=O)NC3CCCCC3)C2)cc(OC)c1OC (stereo unspecified)", "class.name": "Yes"}
{"molecule": "CCCNC(=O)c1cc(Cl)cc(C)c1NC(=O)C1CC(c2ccc(F)cc2)=NO1 (stereo unspecified)", "class.name": "Yes"}
{"molecule": "CCN(CC)C(=O)c1cc(Cl)cc(C)c1NC(=O)C1CC(c2cc(OC)c(OC)c(OC)c2)=NO1 (stereo unspecified)", "class.name": "No"}

# check: inhibition of growth at 40 µg/mL of Cc1cc(Cl)cc(C(=O)NC2CCCCC2)c1NC(=O)C1CC(c2ccc(Cl)cc2)=NO1 (stereo unspecified) is greater than or equal to 10% Yes

---

test system: NCI-H460; test: Growth inhibition of human NCI-H460 cells at 40 ug/ml after 72 hrs by MTT assay; assay type: functional; conditions: NCI-H460, 72 h, read-out: GI
value.kind: inhibition of growth at 40 µg/mL (%)
The reply should contain only the number, in %.

Examples with their reported inhibition of growth at 40 µg/mL follow.
{"compound": "CNC(=O)c1cc(Cl)cc(C)c1NC(=O)C1CC(c2cc(OC)c(OC)c(OC)c2)=NO1 (stereo not given)", "tested.system": "NCI-H460", "value.kind": "inhibition of growth at 40 µg/mL", "assay.value": 5.5}
{"compound": "CNC(=O)c1cc(Cl)cc(C)c1NC(=O)C1CC(c2ccc(Cl)cc2)=NO1 (stereo not given)", "tested.system": "NCI-H460", "value.kind": "inhibition of growth at 40 µg/mL", "assay.value": 0}

Field request: inhibition of growth at 40 µg/mL | item: Cc1cc(Cl)cc(C(=O)Nc2ccccc2)c1NC(=O)C1CC(c2ccc(F)cc2)=NO1 (stereo not given) 0

Field request: inhibition of growth at 40 µg/mL | item: COc1cc(C2=NOC(c3nc4c(C)cc(Cl)cc4c(=O)o3)C2)cc(OC)c1OC (stereo not given) 0

Field request: inhibition of growth at 40 µg/mL | item: CCCNC(=O)c1cc(Cl)cc(C)c1NC(=O)C1CC(c2ccc(Cl)cc2)=NO1 (stereo not given) 13.6

Field request: inhibition of growth at 40 µg/mL | item: CNC(=O)c1ccccc1NC(=O)C1CC(c2cc(OC)c(OC)c(OC)c2)=NO1 (stereo not given) 0

Field request: inhibition of growth at 40 µg/mL | item: CC(C)NC(=O)c1ccccc1NC(=O)C1CC(c2ccc(F)cc2)=NO1 (stereo not given) 0

---

This section presents compounds with their documented pIC50 values.
system: BGC-823; experiment: Cytotoxicity against human BGC823 cells after 72 hrs by MTT assay; type: functional, cell-based; conditions: BGC-823, 72 h
pIC50: −log10 of the molar value.

Examples with their reported pIC50 follow.
{"compound": "CCCNC(=O)c1cc(Cl)cc(C)c1NC(=O)C1CC(c2ccc(F)cc2)=NO1 (stereo unspecified)", "pIC50": "< 4.00"}
{"compound": "CCCNC(=O)c1cc(Cl)cc(C)c1NC(=O)C1CC(c2cc(OC)c(OC)c(OC)c2)=NO1 (stereo unspecified)", "pIC50": "< 4.00"}
{"compound": "CNC(=O)c1cc(Cl)cc(C)c1NC(=O)C1CC(c2ccc(Cl)cc2)=NO1 (stereo unspecified)", "pIC50": "< 4.00"}
{"compound": "CCN(CC)C(=O)c1cc(Cl)cc(C)c1NC(=O)C1CC(c2ccc(F)cc2)=NO1 (stereo unspecified)", "pIC50": "< 4.00"}

Notebook: pull reported pIC50 for BGC-823, entry COc1cc(C2=NOC(c3nc4c(C)cc(Cl)cc4c(=O)o3)C2)cc(OC)c1OC (stereo unspecified) < 4.00

Notebook: pull reported pIC50 for BGC-823, entry CNC(=O)c1cc(Cl)cc(C)c1NC(=O)C1CC(c2ccc(F)cc2)=NO1 (stereo unspecified) < 4.00
